# Biochem EGFR %Inhibition values compiled below
Biological target: EGFR (Homo sapiens, UniProt P00533)
Construct: Add 7 ug A431 cell lysate per well (EGFR source); endogenous in cells; host or cells: A431
Sequence (P00533 25-1210): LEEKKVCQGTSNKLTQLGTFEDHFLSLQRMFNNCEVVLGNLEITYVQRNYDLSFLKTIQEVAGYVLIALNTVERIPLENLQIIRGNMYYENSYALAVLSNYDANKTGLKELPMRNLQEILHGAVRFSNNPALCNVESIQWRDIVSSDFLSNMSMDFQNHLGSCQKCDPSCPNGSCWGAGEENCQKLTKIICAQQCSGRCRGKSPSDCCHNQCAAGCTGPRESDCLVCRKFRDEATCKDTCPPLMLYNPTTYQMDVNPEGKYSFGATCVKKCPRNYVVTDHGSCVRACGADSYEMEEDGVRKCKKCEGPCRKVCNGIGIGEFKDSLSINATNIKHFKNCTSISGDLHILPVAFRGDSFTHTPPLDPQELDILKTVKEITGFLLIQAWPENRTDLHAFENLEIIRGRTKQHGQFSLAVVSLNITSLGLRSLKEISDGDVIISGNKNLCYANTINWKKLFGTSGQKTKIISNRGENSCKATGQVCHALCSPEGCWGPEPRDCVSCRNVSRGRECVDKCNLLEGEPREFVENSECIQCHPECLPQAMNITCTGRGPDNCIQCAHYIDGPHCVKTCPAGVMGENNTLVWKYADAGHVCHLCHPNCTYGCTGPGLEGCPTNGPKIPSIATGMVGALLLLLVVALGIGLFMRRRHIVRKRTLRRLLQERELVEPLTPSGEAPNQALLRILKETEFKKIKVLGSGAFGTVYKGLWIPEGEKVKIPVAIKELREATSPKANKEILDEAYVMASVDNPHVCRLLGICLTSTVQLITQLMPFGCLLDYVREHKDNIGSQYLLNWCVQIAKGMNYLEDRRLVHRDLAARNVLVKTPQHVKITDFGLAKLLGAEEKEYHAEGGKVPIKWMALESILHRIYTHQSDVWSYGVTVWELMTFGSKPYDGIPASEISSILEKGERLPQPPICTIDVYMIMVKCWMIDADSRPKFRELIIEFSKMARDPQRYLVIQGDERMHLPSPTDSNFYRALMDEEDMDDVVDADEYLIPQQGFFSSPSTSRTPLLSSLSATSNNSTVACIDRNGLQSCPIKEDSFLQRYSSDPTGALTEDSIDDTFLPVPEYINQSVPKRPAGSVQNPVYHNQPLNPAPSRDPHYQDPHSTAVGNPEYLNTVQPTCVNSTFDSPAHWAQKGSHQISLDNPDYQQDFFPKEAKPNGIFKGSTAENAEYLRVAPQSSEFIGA
Assay: EGFR ELISA assay (in vitro kinase activity, EGFR captured from A431 cell lysate)
Type: biochemical
Design: concentration or dose not given beside the values
Give a bare numeral; the unit % is implied.

The following compounds have reported results that may help.
In [3]: df
Out[3]:
                                smiles_code  quantitative_readout
0  CCc1ccc(C=C2C(=O)Nc3ccc(S(=O)(=O)Nc4ccc(C(F)(F)F)cc4)cc32)o1                  41.4
1  CNS(=O)(=O)c1ccc2c(c1)C(=Cc1cccc(F)c1O)C(=O)N2                 -13.7

Biochem EGFR %Inhibition in this record for CCOc1ccc(C=C2C(=O)Nc3ccc(S(=O)(=O)N4CCOCC4)cc32)cc1OC : 14.8

###

Molecular target: FLK-1 receptor (Mus musculus)
Construct: expressed in transfected cells; host or cells: NIH3T3 C7#3
Sequence (P35918 20-1345): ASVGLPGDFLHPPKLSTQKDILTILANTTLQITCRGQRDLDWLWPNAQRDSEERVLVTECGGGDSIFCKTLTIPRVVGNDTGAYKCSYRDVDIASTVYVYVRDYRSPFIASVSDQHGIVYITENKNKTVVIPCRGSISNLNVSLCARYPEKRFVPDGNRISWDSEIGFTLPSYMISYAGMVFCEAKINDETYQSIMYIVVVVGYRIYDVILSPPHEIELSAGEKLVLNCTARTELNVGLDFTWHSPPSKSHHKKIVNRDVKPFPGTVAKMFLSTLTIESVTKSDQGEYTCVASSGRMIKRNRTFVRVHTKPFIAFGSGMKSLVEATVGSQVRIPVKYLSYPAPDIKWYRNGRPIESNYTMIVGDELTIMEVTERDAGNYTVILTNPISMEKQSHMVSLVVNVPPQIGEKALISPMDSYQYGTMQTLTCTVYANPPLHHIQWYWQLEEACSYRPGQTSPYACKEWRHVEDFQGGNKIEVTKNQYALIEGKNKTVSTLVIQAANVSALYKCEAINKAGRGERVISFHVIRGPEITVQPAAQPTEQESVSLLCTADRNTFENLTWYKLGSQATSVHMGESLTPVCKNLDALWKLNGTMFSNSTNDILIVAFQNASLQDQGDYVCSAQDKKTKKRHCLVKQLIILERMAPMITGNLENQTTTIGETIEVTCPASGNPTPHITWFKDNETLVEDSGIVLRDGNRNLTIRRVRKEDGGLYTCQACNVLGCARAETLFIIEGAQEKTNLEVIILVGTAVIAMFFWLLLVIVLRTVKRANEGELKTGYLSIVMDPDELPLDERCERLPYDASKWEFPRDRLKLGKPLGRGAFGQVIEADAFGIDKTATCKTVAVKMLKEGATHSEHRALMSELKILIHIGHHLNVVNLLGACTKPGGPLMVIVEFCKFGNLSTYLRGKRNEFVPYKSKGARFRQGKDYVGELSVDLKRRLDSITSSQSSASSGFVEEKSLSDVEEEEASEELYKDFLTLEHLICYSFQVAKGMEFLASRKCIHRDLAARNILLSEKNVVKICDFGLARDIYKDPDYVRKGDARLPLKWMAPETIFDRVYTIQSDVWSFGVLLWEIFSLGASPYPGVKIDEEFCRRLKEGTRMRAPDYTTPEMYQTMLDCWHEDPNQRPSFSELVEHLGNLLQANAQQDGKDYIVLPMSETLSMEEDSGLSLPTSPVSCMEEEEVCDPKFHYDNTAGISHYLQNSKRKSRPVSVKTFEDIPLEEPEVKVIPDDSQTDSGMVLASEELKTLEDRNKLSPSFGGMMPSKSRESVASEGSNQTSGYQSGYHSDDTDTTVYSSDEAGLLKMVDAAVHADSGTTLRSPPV
Assay: FLK-1 ELISA (kinase activity of the FLK-1 receptor in FLK-1/NIH3T3 cells, VEGF stimulated)
Format: cell-based
# Fik Kinase %Inhibition values compiled below
Give a bare numeral; the unit % is implied.

The following compounds have reported results that may help.
>>> df
                                   compound            experimental_system       measured_endpoint  quantitative_readout
0  O=C1Nc2ccc(I)cc2C1=Cc1ccc2ccccc2c1O [10718/B04]  FLK-1 receptor (Mus musculus)  Fik Kinase %Inhibition                  11.8
1  CNS(=O)(=O)c1ccc2c(c1)C(=Cc1cccc([N+](=O)[O-])c1)C(=O)N2 [10719/D10]  FLK-1 receptor (Mus musculus)  Fik Kinase %Inhibition                   8.3
2  O=C1Nc2ccc(CCCl)cc2C1=Cc1ccc(O)cc1O [10723/G08]  FLK-1 receptor (Mus musculus)  Fik Kinase %Inhibition                 -22.9
3  COc1cccc(OC)c1C=C1C(=O)Nc2ccc(CCCl)cc21 [10728/G03]  FLK-1 receptor (Mus musculus)  Fik Kinase %Inhibition                  14.3
4  CCc1ccc(C=C2C(=O)Nc3ccc(I)cc32)s1 [10726/B10]  FLK-1 receptor (Mus musculus)  Fik Kinase %Inhibition                   3.7
5  Cc1cc(O)cc(O)c1C=C1C(=O)Nc2c(Br)cc(Br)cc21 [10720/A08]  FLK-1 receptor (Mus musculus)  Fik Kinase %Inhibition                  -2.2
6  CNS(=O)(=O)c1ccc2c(c1)C(=Cc1ccncc1)C(=O)N2 [10729/D09]  FLK-1 receptor (Mus musculus)  Fik Kinase %Inhibition                  -9.6
7  O=C1Nc2ccc(I)cc2C1=Cc1ccc(O)c(O)c1 [10719/B03]  FLK-1 receptor (Mus musculus)  Fik Kinase %Inhibition                  14.2

Field Fik Kinase %Inhibition (system: FLK-1 receptor (Mus musculus)) for entry COc1ccc(Br)c(C=C2C(=O)Nc3ccc(S(=O)(=O)N4CCOCC4)cc32)c1O [10725/F03] = 4.3

Field Fik Kinase %Inhibition (system: FLK-1 receptor (Mus musculus)) for entry CNS(=O)(=O)c1ccc2c(c1)C(=Cc1ccc(C(F)(F)F)cc1)C(=O)N2 [10722/D11] = 9.6

Field Fik Kinase %Inhibition (system: FLK-1 receptor (Mus musculus)) for entry COc1c(C)cc(C=C2C(=O)Nc3ccc(S(=O)(=O)N4CCOCC4)cc32)cc1C [10733/F06] = 19.3

Field Fik Kinase %Inhibition (system: FLK-1 receptor (Mus musculus)) for entry Cc1c(O)ccc(C=C2C(=O)Nc3c(Br)cc(Br)cc32)c1O [10718/A09] = -18.4

Field Fik Kinase %Inhibition (system: FLK-1 receptor (Mus musculus)) for entry COc1c([N+](=O)[O-])cc(C=C2C(=O)Nc3ccc(CCCl)cc32)cc1C(C)(C)C [10733/G03] = 24.7

Field Fik Kinase %Inhibition (system: FLK-1 receptor (Mus musculus)) for entry O=C1Nc2ccc(I)cc2C1=Cc1ccc([N+](=O)[O-])cc1 [10734/B06] = -0.9

Field Fik Kinase %Inhibition (system: FLK-1 receptor (Mus musculus)) for entry O=C1Nc2ccc(I)cc2C1=Cc1ccco1 [10718/B10] = 20.1

Field Fik Kinase %Inhibition (system: FLK-1 receptor (Mus musculus)) for entry CCn1c2ccccc2c2cc(C=C3C(=O)Nc4ccc(I)cc43)ccc21 [10731/B02] = 6.5
